Below, each of the binders is paired with its reported koff value.
- STUDY_TARGET: T1, human α-CGRP 1-37 (WT) (human, C-terminal amide; N-terminal biotin when captured on the SA chip; 125I-labelled in the radioligand assay)
- T1 construct: also called α-human
- T1 peptide: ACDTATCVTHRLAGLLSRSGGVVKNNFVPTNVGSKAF
- PROCEDURE_DETAILS: Biacore, 37°C, Fab over CGRP on SA chip
Respond numerically; units are s⁻¹ and should not be typed.

BINDER	RESULT_UNITS	koff
G1 variant M40 Fab (Fab, V domains shown, Fab; constant domains as m1) VH: EVQLVESGGGLVQPGGSLRLSCAASGFTFSNYWISWVRQAPGKGLEWVAEIRSKSDLSATHYAEAVKGRFTISRDNAKNSLYLQMNSLRAEDTAVYYCTVYFDYGLAIQNYWGQGTLVTVSS VL: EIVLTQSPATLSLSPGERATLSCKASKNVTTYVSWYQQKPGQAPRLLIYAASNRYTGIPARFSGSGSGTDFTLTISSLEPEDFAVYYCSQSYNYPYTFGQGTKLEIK	s⁻¹	0.00128

Tell me measured koff for G1 variant M37 Fab (Fab, V domains shown, Fab; constant domains as m1) VH: EVQLVESGGGLVQPGGSLRLSCAASGFTFSNYWISWVRQAPGKGLEWVAEIRSESDGSATHYAEAVKGRFTISRDNAKNSLYLQMNSLRAEDTAVYYCTVYFDYGLAIQNYWGQGTLVTVSS VL: EIVLTQSPATLSLSPGERATLSCKASKNVSTYVSWYQQKPGQAPRLLIYGASNRYLGIPARFSGSGSGTDFTLTISSLEPEDFAVYYCSQSYNYPYTFGQGTKLEIK please.
0.000226

Using known records, supply koff for G1 variant M56 Fab (Fab, V domains shown, Fab; constant domains as m1) VH: EVQLVESGGGLVQPGGSLRLSCAASGFTFSNYWISWVRQAPGKGLEWVAEIRSKSDNSATFYAEAVKGRFTISRDNAKNSLYLQMNSLRAEDTAVYYCTVYFDYGLAIQNYWGQGTLVTVSS VL: EIVLTQSPATLSLSPGERATLSCKASKNVDTYVSWYQQKPGQAPRLLIYGASNRYSGIPARFSGSGSGTDFTLTISSLEPEDFAVYYCSQSYNYPYTFGQGTKLEIK
0.000479

Return value of koff for input G1 variant M41 Fab (Fab, V domains shown, Fab; constant domains as m1) VH: EVQLVESGGGLVQPGGSLRLSCAASGFTFSNYWISWVRQAPGKGLEWVAEIRSKSDNSATHYADAVKGRFTISRDNAKNSLYLQMNSLRAEDTAVYYCTVYFDYGLAIQNYWGQGTLVTVSS VL: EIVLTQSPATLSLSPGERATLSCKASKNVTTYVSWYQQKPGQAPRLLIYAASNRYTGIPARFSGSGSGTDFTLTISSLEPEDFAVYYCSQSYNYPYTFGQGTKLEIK , no commentary.
0.00021

Give the measured koff for G1 variant M51 Fab (Fab, V domains shown, Fab; constant domains as m1; printed L561 read as L56I) VH: EVQLVESGGGLVQPGGSLRLSCAASGFTFSNYWISWVRQAPGKGLEWVAEIRSKSDGSATHYAEAVKGRFTISRDNAKNSLYLQMNSLRAEDTAVYYCTVYFDYGLAIQNYWGQGTLVTVSS VL: EIVLTQSPATLSLSPGERATLSCKASKNVTTYVSWYQQKPGQAPRLLIYGASNRYIGIPARFSGSGSGTDFTLTISSLEPEDFAVYYCSQSYNYPYTFGQGTKLEIK
0.000131

Read off the recorded koff for G1 variant M81 Fab (Fab, V domains shown, Fab; constant domains as m1) VH: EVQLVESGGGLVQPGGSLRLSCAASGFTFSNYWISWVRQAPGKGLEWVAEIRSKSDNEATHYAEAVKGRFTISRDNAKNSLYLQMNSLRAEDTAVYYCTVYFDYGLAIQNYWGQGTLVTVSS VL: EIVLTQSPATLSLSPGERATLSCKASKNVSTYVSWYQQKPGQAPRLLIYGASNRYSGIPARFSGSGSGTDFTLTISSLEPEDFAVYYCSQSYNYPYTFGQGTKLEIK
0.00049
